Recorded GI50 values for a group of compounds are listed next.
Tested on: SNB-19
Test: NCI tumour cell line growth inhibition, 48 h
Active and inactive are the calls of the source. No stated cut-off is given here; in the data, active = GI50 up to about 1.1 µM and inactive = higher.

>  <compound>
Cn1nc(-c2ccccc2)c(C(=O)/C=C/c2ccc(F)cc2)c(N2CCOCC2)c1=O

>  <GI50>
13.7 µM (inactive)

$$$$
>  <compound>
O=C1N(CN2CCOCC2)CN(CN2CCOCC2)C(=O)N1Cc1ccccc1

>  <GI50>
> 100 µM (inactive)

$$$$
>  <compound>
CCc1cccc(=O)c([O-])c1.CCc1cccc(=O)c([O-])c1.[Bi+3].[Cl-]

>  <GI50>
11 µM (inactive)

$$$$
>  <compound>
COc1ccc(N2C(=O)C3ON(C(C(N)=O)c4ccccc4)C(c4cc5ccccc5c5ccccc45)C3C2=O)cc1 (stereo not given)

>  <GI50>
> 50 µM (inactive)

$$$$
>  <compound>
COC1(OC)CCC2(C)OC(c3ccccc3)C1O2 (stereo not given)

>  <GI50>
> 100 µM (inactive)

$$$$
